system: Staphylococcus aureus; assay: Antibacterial activity against Staphylococcus aureus ATCC 29213 assessed as inhibition of bacterial growth incubated for 96 hrs by broth microdilution method; type: functional
readout type: MIC (µg/mL)
Dear colleague, please return just the value in µg/mL, with no unit written.

The recorded MIC for entry C=C[C@]1(C)C[C@@H](OC(=O)CSc2cccc(OCC#CC)c2)[C@]2(C)[C@H](C)CC[C@]3(CCC(=O)[C@H]32)[C@@H](C)[C@@H]1O equals 0.125

The recorded MIC for entry C=C[C@]1(C)C[C@@H](OC(=O)CSc2ccc(O)cc2)[C@]2(C)[C@H](C)CC[C@]3(CCC(=O)[C@H]32)[C@@H](C)[C@@H]1O equals 0.062

The recorded MIC for entry C=C[C@]1(C)C[C@@H](OC(=O)CSc2ccccc2OCc2ccc(C(=O)OC(C)(C)C)cc2)[C@]2(C)[C@H](C)CC[C@]3(CCC(=O)[C@H]32)[C@@H](C)[C@@H]1O equals 16

* * *

system: Staphylococcus aureus; assay: Antibacterial activity against methicillin-resistant Staphylococcus aureus ATCC43300 assessed as inhibition of bacterial growth incubated for 96 hrs by broth microdilution method; assay type: functional
In this section, each of the compounds is paired with its reported MIC.

[
  {
    "smiles record": "C=C[C@]1(C)C[C@@H](OC(=O)CSc2cccc(OCC(=O)N3CCS(=O)(=O)CC3)c2)[C@]2(C)[C@H](C)CC[C@]3(CCC(=O)[C@H]32)[C@@H](C)[C@@H]1O",
    "target system": "Staphylococcus aureus",
    "observed measurement": "< 0.031 µg/mL"
  },
  {
    "smiles record": "C=C[C@]1(C)C[C@@H](OC(=O)CSc2ccccc2OCC(=O)N2CCS(=O)(=O)CC2)[C@]2(C)[C@H](C)CC[C@]3(CCC(=O)[C@H]32)[C@@H](C)[C@@H]1O",
    "target system": "Staphylococcus aureus",
    "observed measurement": "< 0.031 µg/mL"
  }
]

The recorded MIC for entry C=C[C@]1(C)C[C@@H](OC(=O)CSc2ccc(OCC(=O)N3CCS(=O)(=O)CC3)cc2)[C@]2(C)[C@H](C)CC[C@]3(CCC(=O)[C@H]32)[C@@H](C)[C@@H]1O equals < 0.031 µg/mL
